Where do the numbers come from? From patent US10874743B2.

assay: Pharmacokinetics in CD-1 mice (plasma concentrations, PK parameters); format: in vivo; settings: CD-1, mouse, plasma, iv, 2 mg/kg, mouse (CD1) iv 2 mg/kg; 4.00 h; Mean IV; read-out: concentrations

| compound | concentration at 4 h |
| --- | --- |
| NC(=O)c1nn(-c2ccc(C(=O)NCCOCCOCCNc3cccc4c3C(=O)N(C3CCC(=O)NC3=O)C4=O)cc2)cc1NC(=O)c1coc(-c2ccnc(NCC(F)(F)F)c2)n1 (stereo not shown) | 12.2 ng/mL |

====

Assay: Pharmacokinetics in CD-1 mice (plasma concentrations, PK parameters)
Format: in vivo
Details: CD-1, mouse, plasma, iv, 2 mg/kg, mouse (CD1) iv 2 mg/kg; Mean; read-out: AUCInf
Method: Pharmacokinetics for I-127, I-172 and I-210 were determined in Sprague Dawley rats or CD-1 mice by dosing intravenous (IV), subcutaneous (SC) or per oral (PO) using facility SOPs and sampling plasma at required time points. […] Compounds were extracted from plasma, injected on reverse phase HPLC, eluted with a gradient from 5% to 95% acetonitrile in water and quantified by mass spectrometry with internal standard. […]
Reported values of AUC(0-inf) for individual entries

| compound | units.label | AUC(0-inf) |
| --- | --- | --- |
| O=C1CCC(N2C(=O)c3cccc(NCCOCCOCCNCc4ccc(-n5cc(NC(=O)c6coc(-c7ccnc(NCC8CC8)c7)n6)c(C(F)F)n5)cc4)c3C2=O)C(=O)N1 (centres unmarked) [I-210] | ng·h/mL | 672 |
| NC(=O)c1nn(-c2ccc(C(=O)NCCCCCNCCNc3cccc4c3C(=O)N(C3CCC(=O)NC3=O)C4=O)cc2)cc1NC(=O)c1coc(-c2ccnc(NCC(F)(F)F)c2)n1 (centres unmarked) [I-172] | ng·h/mL | 1070 |
